Sourced from ChEMBL document CHEMBL3045043

Test system: DNA
Experiment description: Binding affinity to Bos taurus (calf) thymus DNA assessed as hypochromicity at 15 uM by spectrophotmetry analysis
Format: nucleic-acid assay
Recorded metric: Activity (%)

Known results for compounds:
Given smiles: CCN(CC)CCCCn1c2ccccc2c(=O)c2c(C)cc(C)cc21
Activity (%): 52
--
Given smiles: Cc1cc(C)c2c(=O)c3ccccc3n(CCCCN3CCN(CCO)CC3)c2c1
Activity (%): 53

I. Cc1cc(C)c2c(=O)c3ccccc3n(CCCCN3CCN(C)CC3)c2c1
II. Cc1cc(C)c2c(=O)c3ccccc3n(CCCCN3CCCC3)c2c1
*Q* Lab notebook, comparison: I versus II , higher Activity goes to which? Respond using the label that marks the chosen record.
*A* I

A. Cc1cc(C)c2c(=O)c3ccccc3n(CCCCN3CCCCC3)c2c1
B. Cc1cc(C)c2c(=O)c3ccccc3n(CCCCN3CCOCC3)c2c1
*Q* Between A and B , which one has the lower reported Activity value? Respond using the label that marks the chosen record.
*A* B

P. CCN(CC)CCCn1c2ccccc2c(=O)c2c(C)cc(C)cc21
Q. Cc1cc(C)c2c(=O)c3ccccc3n(CCCN3CCOCC3)c2c1
*Q* Between P and Q , which one has the lower reported Activity value? Respond using the label that marks the chosen record.
*A* Q
